Biological target: T1, SEMG2(354-403) fragment (human)
T1 peptide: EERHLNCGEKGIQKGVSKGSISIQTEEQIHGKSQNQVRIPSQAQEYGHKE
Experiment: ELISA, immobilized antigen SEMG2 (354-403)
valueKind: A450 absorbance
// response body must contain only the number

MM08 (antibody, IgG1, V domains shown) VH: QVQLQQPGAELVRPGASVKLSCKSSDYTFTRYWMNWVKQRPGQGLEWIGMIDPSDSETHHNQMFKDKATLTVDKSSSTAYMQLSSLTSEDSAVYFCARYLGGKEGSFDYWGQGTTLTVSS VL: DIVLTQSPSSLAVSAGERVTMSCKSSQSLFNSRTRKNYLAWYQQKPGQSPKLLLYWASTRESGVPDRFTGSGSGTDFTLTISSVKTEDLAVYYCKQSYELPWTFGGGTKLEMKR	0.012

The recorded A450 absorbance for MM07 (antibody, V domains shown, The VH and VL begin with what look like leader peptides (MDWLW..., MVSSAQ...)) VH: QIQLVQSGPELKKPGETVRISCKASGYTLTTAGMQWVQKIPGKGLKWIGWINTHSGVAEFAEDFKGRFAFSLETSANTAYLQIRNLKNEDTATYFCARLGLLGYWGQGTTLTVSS VL: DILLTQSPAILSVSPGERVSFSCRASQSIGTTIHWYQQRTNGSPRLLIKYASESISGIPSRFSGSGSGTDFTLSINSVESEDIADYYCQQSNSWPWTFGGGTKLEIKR is 0.001

The recorded A450 absorbance for MM14 (antibody, IgG2b, V domains shown) VH: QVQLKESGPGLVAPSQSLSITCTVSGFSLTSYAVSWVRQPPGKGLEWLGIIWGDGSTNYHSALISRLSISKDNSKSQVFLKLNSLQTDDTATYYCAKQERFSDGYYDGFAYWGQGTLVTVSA VL: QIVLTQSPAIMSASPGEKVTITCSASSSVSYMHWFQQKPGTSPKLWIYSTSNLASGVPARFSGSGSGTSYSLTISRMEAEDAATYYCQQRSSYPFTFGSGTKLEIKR is 0.003

The recorded A450 absorbance for MM05 (antibody, IgG1, V domains shown) VH: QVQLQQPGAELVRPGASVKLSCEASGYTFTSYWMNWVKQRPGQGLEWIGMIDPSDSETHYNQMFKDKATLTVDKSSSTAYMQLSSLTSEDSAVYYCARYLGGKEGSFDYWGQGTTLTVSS VL: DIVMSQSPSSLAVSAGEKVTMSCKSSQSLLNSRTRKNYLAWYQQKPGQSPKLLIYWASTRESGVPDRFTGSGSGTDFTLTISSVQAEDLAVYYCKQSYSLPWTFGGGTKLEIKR is 0.008

The recorded A450 absorbance for MM02 (antibody, IgG2b, V domains shown) VH: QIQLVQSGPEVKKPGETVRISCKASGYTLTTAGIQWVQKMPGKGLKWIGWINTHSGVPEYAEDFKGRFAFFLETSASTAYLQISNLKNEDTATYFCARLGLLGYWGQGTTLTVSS VL: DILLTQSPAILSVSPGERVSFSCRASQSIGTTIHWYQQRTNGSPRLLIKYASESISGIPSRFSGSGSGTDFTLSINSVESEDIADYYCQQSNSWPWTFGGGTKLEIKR is 0.004
